- Test system: NCI-H524 (Small Cell Lung Carcinoma)
- METHOD SUMMARY: Bliss excess, mean over the matrix (fraction); higher = more synergy
RESULT TYPE: Bliss excess
Answers are plain numbers.

Example compounds with recorded Bliss excess:
COMPOUND: CN(C)CCCOc1ccc(-c2ccc3ncc4c(c3c2)n(C2CCOCC2)c(=O)n4C)cn1 [AZD0156] + C[C@@H]1COCCN1C2=NC(=NC(=C2)C3(CC3)[S@](=N)(=O)C)C4=C5C=CNC5=NC=C4 [AZD6738] (first compound max 1 µM, 7x7, partner max 10 µM)
TEST RESULT: 0.0229

COMPOUND: CN(C)CCCOc1ccc(-c2ccc3ncc4c(c3c2)n(C2CCOCC2)c(=O)n4C)cn1 [AZD0156] + CCN(CCO)CCCOc1ccc2c(Nc3cc(CC(=O)Nc4cccc(F)c4)[nH]n3)ncnc2c1 [AZD2811] (first compound max 1 µM, 7x7, partner max 1 µM)
TEST RESULT: -0.0083

COMPOUND: CC(=O)Nc1cccc(-n2c(=O)n(C3CC3)c(=O)c3c(Nc4ccc(I)cc4F)n(C)c(=O)c(C)c32)c1 [Trametinib] + Cc1nc(-c2cn3c(n2)-c2ccc(-c4cnn(C(C)(C)C(N)=O)c4)cc2OCC3)n(C(C)C)n1 [Taselisib] (first compound max 1 µM, 7x7, partner max 10 µM)
TEST RESULT: -0.112

COMPOUND: CS(=O)(=O)CCNCc1ccc(-c2ccc3ncnc(Nc4ccc(OCc5cccc(F)c5)c(Cl)c4)c3c2)o1 [Lapatinib] + NC1(c2ccc(-c3nc4ccn5c(=O)[nH]nc5c4cc3-c3ccccc3)cc2)CCC1 [MK-2206] (first compound max 10 µM, 7x7, partner max 10 µM)
TEST RESULT: 0.0223

COMPOUND: CCc1c2c(nc3ccc(O)cc13)-c1cc3c(c(=O)n1C2)COC(=O)[C@]3(O)CC [SN-38] + O=C(c1cc(Cc2n[nH]c(=O)c3ccccc23)ccc1F)N1CCN(C(=O)C2CC2)CC1 [Olaparib] (first compound max 0.3 µM, 7x7, partner max 10 µM)
TEST RESULT: 0.0488

COMPOUND: CN(CCO)CC[C@H](CSc1ccccc1)Nc1ccc(S(=O)(=O)NC(=O)c2ccc(N3CCC([C@@H](O)c4ccccc4-c4ccc(Cl)cc4)CC3)cc2)cc1S(=O)(=O)C(F)(F)F [AZD4320] + CCN(CCO)CCCOc1ccc2c(Nc3cc(CC(=O)Nc4cccc(F)c4)[nH]n3)ncnc2c1 [AZD2811] (first compound max 1 µM, 7x7, partner max 1 µM)
TEST RESULT: -0.0163

For each of the compounds below, state Bliss excess.
1. CN(CCO)CC[C@H](CSc1ccccc1)Nc1ccc(S(=O)(=O)NC(=O)c2ccc(N3CCC([C@@H](O)c4ccccc4-c4ccc(Cl)cc4)CC3)cc2)cc1S(=O)(=O)C(F)(F)F [AZD4320] + Nc1ccn([C@@H]2O[C@H](CO)[C@@H](O)C2(F)F)c(=O)n1 [Gemcitabine] (first compound max 1 µM, 7x7, partner max 0.3 µM)
2. Cn1cnc2c(F)c(Nc3ccc(Br)cc3Cl)c(C(=O)NOCCO)cc21 [Selumetinib] + CC(C)n1c(=O)n(C)c2cnc3cc(F)c(-c4ccc(OCCCN5CCCCC5)nc4)cc3c21 [AZD1390] (first compound max 10 µM, 7x7, partner max 0.3 µM)
3. COc1nnc2ccc(N3CCC(c4ccc(OCCN5CCN(C)C(=O)[C@H]5C)cc4)CC3)nn12 [AZD5153] + C[C@@H]1COCCN1C2=NC(=NC(=C2)C3(CC3)[S@](=N)(=O)C)C4=C5C=CNC5=NC=C4 [AZD6738] (first compound max 1 µM, 7x7, partner max 10 µM)

Reply |
[-0.0216, -0.0286, 0.0142]

For each of the compounds below, state Bliss excess.
1. CC1(C)CCC(CN2CCN(c3ccc(C(=O)NS(=O)(=O)c4ccc(NCC5CCOCC5)c([N+](=O)[O-])c4)c(Oc4cnc5[nH]ccc5c4)c3)CC2)=C(c2ccc(Cl)cc2)C1 [Venetoclax] + C[C@@H]1COCCN1C2=NC(=NC(=C2)C3(CC3)[S@](=N)(=O)C)C4=C5C=CNC5=NC=C4 [AZD6738] (first compound max 1 µM, 7x7, partner max 10 µM)
2. Cc1cc2ncnn2cc1Nc1ncc2c(n1)n(C1CCOCC1)c(=O)n2C [AZD7648] + CN(C)CCCOc1ccc(-c2ccc3ncc4c(c3c2)n(C2CCOCC2)c(=O)n4C)cn1 [AZD0156] (first compound max 10 µM, 7x7, partner max 1 µM)

Reply |
1. -0.0453
2. 0.0254

* * *

- System: BFTC-909 (Kidney Carcinoma)
- METHOD SUMMARY: Bliss excess, mean over the matrix (fraction); higher = more synergy
RESULT TYPE: Bliss excess
Numbers only.

COMPOUND: NC1(C(=O)N[C@@H](CCO)c2ccc(Cl)cc2)CCN(c2ncnc3[nH]ccc23)CC1 [Capivasertib] + C[C@@H]1COCCN1C2=NC(=NC(=C2)C3(CC3)[S@](=N)(=O)C)C4=C5C=CNC5=NC=C4 [AZD6738] (first compound max 10 µM, 7x7, partner max 10 µM)
TEST SYSTEM: BFTC-909 (Kidney Carcinoma)
Bliss excess: -0.0878

// next entry
Bliss excess of Cc1c2c(nn1C)CSCc1cc(n(C)n1)CSc1cc(c3ccccc3c1)OCCCc1c(C(=O)O)n(C)c3c-2c(Cl)ccc13 [AZD5991] + CN(C)CCCOc1ccc(-c2ccc3ncc4c(c3c2)n(C2CCOCC2)c(=O)n4C)cn1 [AZD0156] (first compound max 1 µM, 7x7, partner max 1 µM) , assay on BFTC-909 (Kidney Carcinoma), is 0.0101

* * *

- Tested on: A673 (Ewing's Sarcoma)
- METHOD SUMMARY: combination Emax (second highest fraction inhibited in the dose matrix, 72 h); higher = more inhibition; extreme values may be limits of the assay
RESULT TYPE: combination Emax
Give bare numbers.

MOLECULE: Cc1c2c(nn1C)CSCc1cc(n(C)n1)CSc1cc(c3ccccc3c1)OCCCc1c(C(=O)O)n(C)c3c-2c(Cl)ccc13 [AZD5991] + C=CCn1c(=O)c2cnc(Nc3ccc(N4CCN(C)CC4)cc3)nc2n1-c1cccc(C(C)(C)O)n1 [AZD1775] (first compound max 1 µM, partner max 1 µM)
TEST RESULT: 0.614

For each of the molecules below, state combination Emax.
1. CS(=O)(=O)CCNCc1ccc(-c2ccc3ncnc(Nc4ccc(OCc5cccc(F)c5)c(Cl)c4)c3c2)o1 [Lapatinib] + NC1(c2ccc(-c3nc4ccn5c(=O)[nH]nc5c4cc3-c3ccccc3)cc2)CCC1 [MK-2206] (first compound max 10 µM, 7x7, partner max 10 µM)
2. COc1nnc2ccc(N3CCC(c4ccc(OCCN5CCN(C)C(=O)[C@H]5C)cc4)CC3)nn12 [AZD5153] + C[C@@H]1COCCN1C2=NC(=NC(=C2)C3(CC3)[S@](=N)(=O)C)C4=C5C=CNC5=NC=C4 [AZD6738] (first compound max 1 µM, 7x7, partner max 10 µM)
3. CN(C)CCCOc1ccc(-c2ccc3ncc4c(c3c2)n(C2CCOCC2)c(=O)n4C)cn1 [AZD0156] + CCN(CCO)CCCOc1ccc2c(Nc3cc(CC(=O)Nc4cccc(F)c4)[nH]n3)ncnc2c1 [AZD2811] (first compound max 1 µM, 7x7, partner max 1 µM)

Reply |
[0.363, 0.84, 0.75]

* * *

Record form. Attribute: Bliss excess. Fill in for each entry.
- Tested on: BE-13 (T-Lymphoblastic Leukemia)
- METHOD SUMMARY: Bliss excess, mean over the matrix (fraction); higher = more synergy
Answers are plain numbers.

COMPOUND: Cc1cc2ncnn2cc1Nc1ncc2c(n1)n(C1CCOCC1)c(=O)n2C [AZD7648] + CN(C)CCCOc1ccc(-c2ccc3ncc4c(c3c2)n(C2CCOCC2)c(=O)n4C)cn1 [AZD0156] (first compound max 10 µM, 7x7, partner max 1 µM)
TEST RESULT: -0.0188

For each of the compounds below, state Bliss excess.
1. Cn1cnc2c(F)c(Nc3ccc(Br)cc3Cl)c(C(=O)NOCCO)cc21 [Selumetinib] + CC(C)n1c(=O)n(C)c2cnc3cc(F)c(-c4ccc(OCCCN5CCCCC5)nc4)cc3c21 [AZD1390] (first compound max 10 µM, 7x7, partner max 0.3 µM)
2. CN(CCO)CC[C@H](CSc1ccccc1)Nc1ccc(S(=O)(=O)NC(=O)c2ccc(N3CCC([C@@H](O)c4ccccc4-c4ccc(Cl)cc4)CC3)cc2)cc1S(=O)(=O)C(F)(F)F [AZD4320] + CS(=O)(=O)CCNCc1ccc(-c2ccc3ncnc(Nc4ccc(OCc5cccc(F)c5)c(Cl)c4)c3c2)o1 [Lapatinib] (first compound max 1 µM, 7x7, partner max 10 µM)

Reply |
-0.0283
0.0292

* * *

- System: LNZTA3WT4 (Low Grade Glioma)
- METHOD SUMMARY: Bliss excess, mean over the matrix (fraction); higher = more synergy
RESULT TYPE: Bliss excess

Example compounds with recorded Bliss excess:
COMPOUND: CN(CCO)CC[C@H](CSc1ccccc1)Nc1ccc(S(=O)(=O)NC(=O)c2ccc(N3CCC([C@@H](O)c4ccccc4-c4ccc(Cl)cc4)CC3)cc2)cc1S(=O)(=O)C(F)(F)F [AZD4320] + C[C@@H]1COCCN1C2=NC(=NC(=C2)C3(CC3)[S@](=N)(=O)C)C4=C5C=CNC5=NC=C4 [AZD6738] (first compound max 1 µM, 7x7, partner max 10 µM)
TEST SYSTEM: LNZTA3WT4 (Low Grade Glioma)
Bliss excess: -0.0029
--
COMPOUND: COc1nnc2ccc(N3CCC(c4ccc(OCCN5CCN(C)C(=O)[C@H]5C)cc4)CC3)nn12 [AZD5153] + C=CCn1c(=O)c2cnc(Nc3ccc(N4CCN(C)CC4)cc3)nc2n1-c1cccc(C(C)(C)O)n1 [AZD1775] (first compound max 1 µM, partner max 1 µM)
TEST SYSTEM: LNZTA3WT4 (Low Grade Glioma)
Bliss excess: -0.0356

For each of the compounds below, state Bliss excess.
1. CN(CCO)CC[C@H](CSc1ccccc1)Nc1ccc(S(=O)(=O)NC(=O)c2ccc(N3CCC([C@@H](O)c4ccccc4-c4ccc(Cl)cc4)CC3)cc2)cc1S(=O)(=O)C(F)(F)F [AZD4320] + CS(=O)(=O)CCNCc1ccc(-c2ccc3ncnc(Nc4ccc(OCc5cccc(F)c5)c(Cl)c4)c3c2)o1 [Lapatinib] (first compound max 1 µM, 7x7, partner max 10 µM)
2. Cc1cc2ncnn2cc1Nc1ncc2c(n1)n(C1CCOCC1)c(=O)n2C [AZD7648] + O=C(c1cc(Cc2n[nH]c(=O)c3ccccc23)ccc1F)N1CCN(C(=O)C2CC2)CC1 [Olaparib] (first compound max 10 µM, 7x7, partner max 10 µM)
3. CN(CCO)CC[C@H](CSc1ccccc1)Nc1ccc(S(=O)(=O)NC(=O)c2ccc(N3CCC([C@@H](O)c4ccccc4-c4ccc(Cl)cc4)CC3)cc2)cc1S(=O)(=O)C(F)(F)F [AZD4320] + Nc1ccn([C@@H]2O[C@H](CO)[C@@H](O)C2(F)F)c(=O)n1 [Gemcitabine] (first compound max 1 µM, 7x7, partner max 0.3 µM)
4. C[C@@H]1COCCN1c1cc(C2([S@](C)(=N)=O)CC2)nc(-c2ccnc3[nH]ccc23)n1 [AZD6738] + O=C(c1cc(Cc2n[nH]c(=O)c3ccccc23)ccc1F)N1CCN(C(=O)C2CC2)CC1 [Olaparib] (first compound max 10 µM, 7x7, partner max 10 µM)

Reply |
0.0677
-0.0341
-0.0125
-0.0197
